- test_system: T1, cynomolgus galectin-10-His, WGS isoform (cynomolgus)
- T1 construct: also called cynoGal10-WGS; not shown: His tag
- T1 chain: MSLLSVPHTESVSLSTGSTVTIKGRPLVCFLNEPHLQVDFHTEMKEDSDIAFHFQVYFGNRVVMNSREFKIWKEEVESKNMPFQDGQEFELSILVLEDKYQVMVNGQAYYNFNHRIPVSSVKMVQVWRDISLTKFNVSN
- method: ELISA, coated antigen 0.2 ug/mL
recorded_endpoint: Bmax

Return Bmax (reported value) for this binder: 10D02 scFv-human Fc (Fc fusion, also called 010D02; not shown: CH2-CH3 constant domains of human IgG1 (pUPEX50 scFv-Fc fusion vector)) scFv: EVQLVESGGGLVQPGGSLRVSCAASGFTFSSYYMSWVRQAPGKGLEWVSGIVTGGGRTHYTDSVKGRFTITRDNAKNTLYLQMNSLRPEDTALYYCARVNGVVTNYDYWGQGTQVTVSSGGGGSGGGGSGGGGSQAVLTQPPSVSGSPGKTVTISCAGTSSDVGYGNYVSWYQQLPGMAPKLLIYDVNKRASGITDRFSGSKSGNTASLTISGLQSEDEADYFCASYRSPNNVVFGQGTHLTVL 3.1 OD
